method_notes: Metabolic stability in liver microsomes (species not specified)
Format: in vitro ADME
assay_readout: metabolic stability, in words

1) Cc1nn(CC(C)(O)C(=O)N2CCN(c3cccc4c3ccc(=O)n4C)CC2)cc1-c1cccc(F)c1 (stereo not shown) : did not improve
2) Cc1nn(CC(C)(O)C(=O)N2CCN(c3cccc4[nH]c(=O)ccc34)CC2)cc1-c1cccc(F)c1 (stereo not shown) : did not improve

---

measurement_target: human NNMT (Homo sapiens, UniProt P40261)
Sequence (P40261 1-264): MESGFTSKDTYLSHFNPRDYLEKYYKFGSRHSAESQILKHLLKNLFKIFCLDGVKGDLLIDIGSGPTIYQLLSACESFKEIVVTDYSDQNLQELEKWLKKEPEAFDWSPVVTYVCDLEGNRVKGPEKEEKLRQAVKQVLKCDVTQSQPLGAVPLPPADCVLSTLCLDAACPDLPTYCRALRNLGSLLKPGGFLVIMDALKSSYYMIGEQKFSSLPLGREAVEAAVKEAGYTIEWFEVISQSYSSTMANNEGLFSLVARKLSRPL
method_notes: Fluorescence-based NNMT enzymatic assay (human enzyme)
Format: biochemical
condition_context: read-out: hNNMT IC50
pIC50: −log10 of the molar value.
Recorded pIC50 by entry
assay_readout: pIC50

1. Cc1nn(CC(C)(O)C(=O)N2CCN(c3c(C)sc4cnccc34)CC2)cc1-c1cccc(F)c1 (centres unmarked) [Compound 14] : 6.31
2. Cc1nn(CC(O)C(=O)N2CCN(c3cccc4cnccc34)CC2)cc1-c1cccc(F)c1.O=C(O)C(F)(F)F (centres unmarked) [Compound 9] : 6.06
3. Cc1nn(CC(C)(O)C(=O)N2CCN(c3cccc4cnccc34)CC2)cc1-c1ccccc1 (centres unmarked) [Compound 1] : 6.59
4. CN1Cc2cccc3c2N(CCC3)C1=N [Compound 4] : 7.15
5. Cc1nn(CC(C)(O)C(=O)N2CCN(c3c(F)ccc4cnccc34)CC2)cc1-c1cccc(F)c1 (centres unmarked) [Compound 11] : 6.70
6. Cc1nn(CC(C)(O)C(=O)N2CCN(c3cccc4c3ccc(=O)n4C)CC2)cc1-c1cccc(F)c1 (centres unmarked) [Compound 23] : 6.82
7. Cc1nn(CCC(=O)N2CCN(c3cccc4cnccc34)CC2)cc1-c1ccccc1 [Compound 6] : 5.78
8. N=c1sc2cccc3c2n1CCC3 [Compound 2] : 5.89
9. Cc1nn(CC(C)(O)C(=O)N2CCN(c3cccc4cnccc34)CC2)cc1-c1ccc(F)c(F)c1 (centres unmarked) [Compound 10] : 6.54
10. COc1ccc(-c2cn(C[C@](C)(O)C(=O)N3CCN(c4cccc5cnccc45)CC3)nc2C)cc1 (stereo in doubt) [Compound 12] : 8.10
